Recorded values, source patent US10144746B2.

# TARGET: Human plasma kallikrein (Homo sapiens (Human), UniProt P03952)
# Sequence (P03952 391-638): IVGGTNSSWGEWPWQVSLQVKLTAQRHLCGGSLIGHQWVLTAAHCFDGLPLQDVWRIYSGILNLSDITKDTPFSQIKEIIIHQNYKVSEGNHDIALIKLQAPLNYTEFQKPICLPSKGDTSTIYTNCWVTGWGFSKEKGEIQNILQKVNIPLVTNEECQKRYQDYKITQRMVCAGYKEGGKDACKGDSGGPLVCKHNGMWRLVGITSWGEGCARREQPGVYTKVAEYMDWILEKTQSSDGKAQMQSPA
# Sequence (P03952 20-390 partner): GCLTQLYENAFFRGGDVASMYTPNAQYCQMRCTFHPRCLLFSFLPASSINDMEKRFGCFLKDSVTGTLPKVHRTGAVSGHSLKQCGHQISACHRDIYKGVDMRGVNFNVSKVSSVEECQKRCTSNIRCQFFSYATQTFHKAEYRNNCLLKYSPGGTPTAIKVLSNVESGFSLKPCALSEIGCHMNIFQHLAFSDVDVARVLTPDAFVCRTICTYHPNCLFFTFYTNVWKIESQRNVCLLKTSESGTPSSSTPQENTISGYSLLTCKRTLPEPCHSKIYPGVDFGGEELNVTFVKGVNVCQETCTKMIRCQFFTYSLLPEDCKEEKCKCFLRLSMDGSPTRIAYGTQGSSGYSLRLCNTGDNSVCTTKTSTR
# MEASUREMENT_PROTOCOL: In vitro plasma kallikrein inhibition assay (chromogenic substrate D-Pro-Phe-Arg-pNa, absorbance at 405 nm, IC50 determination)
# Type: biochemical
# ASSAY_CONTEXT: read-out: KLKB1 pIC50 (converted)
Measured IC50, listed per entry.
Numbers only; they are read as nM.

Solved cases below.
INSERT INTO results (compound, target, unit, value_measured) VALUES
  ('Cc1cc(N)nc(C)c1CNC(=O)c1ccc2c(c1)C1OC2c2cc3c(cc21)C(=O)N(C)C3=O (racemic) [Example 318]', 'Human plasma kallikrein (Homo sapiens (Human), UniProt P03952)', 'nM', 17.4),
  ('Cc1cc(C(=N)N)ccc1CNC(=O)c1ccc2c(c1)[C@@H]1O[C@H]2c2ccc(-n3cccn3)cc21 (single isomer, unassigned) [Example 312]', 'Human plasma kallikrein (Homo sapiens (Human), UniProt P03952)', 'nM', 1),
  ('CCCc1cc(N)nc(C)c1CNC(=O)c1ccc2c(c1)C1OC2c2ccc(-c3ccc(F)cc3F)cc21 (racemic) [Example 172]', 'Human plasma kallikrein (Homo sapiens (Human), UniProt P03952)', 'nM', 10),
  ('Cc1cc(N)nc(C)c1CNC(=O)c1ccc2c(c1)C1OC2c2ccc(Oc3ccc(F)cc3F)cc21 (racemic) [Example 120]', 'Human plasma kallikrein (Homo sapiens (Human), UniProt P03952)', 'nM', 676),
  ('Cc1cc(N)nc(C)c1CNC(=O)c1ccc2c(c1)[C@@H]1O[C@H]2c2ccc(-c3cn4ccccc4n3)cc21 (single isomer, unassigned) [Example 252]', 'Human plasma kallikrein (Homo sapiens (Human), UniProt P03952)', 'nM', 93.3),
  ('Cc1nc(N)cc(C2=CCOCC2)c1CNC(=O)c1ccc2c(c1)[C@@H]1O[C@H]2c2ccc(-c3ccc(F)cc3F)cc21 (single isomer, unassigned) [Example 222]', 'Human plasma kallikrein (Homo sapiens (Human), UniProt P03952)', 'nM', 28.2),
  ('CCCN(c1cccc(F)c1)c1ccc2c(c1)[C@H]1O[C@@H]2c2ccc(C(=O)NCc3c(C)cc(N)nc3C)cc21 (single isomer, unassigned) [Example 250]', 'Human plasma kallikrein (Homo sapiens (Human), UniProt P03952)', 'nM', 33.1),
  ('N=C(N)c1ccc(CNC(=O)c2ccc3c(c2)[C@@H]2O[C@H]3c3ccc(Br)cc32)cc1 (single isomer, unassigned) [Example 206]', 'Human plasma kallikrein (Homo sapiens (Human), UniProt P03952)', 'nM', 37.2),
  ('CCc1cc2c(cc1CC)[C@H]1O[C@@H]2c2ccc(C(=O)NCc3ccc(C(=N)N)cc3)cc21 (single isomer, unassigned) [Example 392]', 'Human plasma kallikrein (Homo sapiens (Human), UniProt P03952)', 'nM', 1),
  ('N=C(N)c1ccc(CNC(=O)c2ccc3c(c2)[C@@H]2O[C@H]3c3ccc(-c4ccc(F)cc4F)cc32)cc1F (single isomer, unassigned) [Example 211]', 'Human plasma kallikrein (Homo sapiens (Human), UniProt P03952)', 'nM', 11.7);

input: Query for Human plasma kallikrein (Homo sapiens (Human), UniProt P03952): what IC50 does the record show for Cc1cc(N)nc(C)c1CNC(=O)c1ccc2c(c1)[C@@H]1O[C@H]2c2ccc(N(C)c3cccc(Cl)c3)cc21 (single isomer, unassigned) [Example 262] ?
output: 8.91

input: Which measured IC50 belongs to Cc1nc(N)cc(C(C)C)c1CNC(=O)c1ccc2c(c1)[C@@H]1O[C@H]2c2ccc(-c3c(F)ccc[n+]3[O-])cc21 (single isomer, unassigned) [Example 289] , tested on Human plasma kallikrein (Homo sapiens (Human), UniProt P03952)?
output: 123

input: API: value(readout=IC50, system=Human plasma kallikrein (Homo sapiens (Human), UniProt P03952)) for record Cc1c(CNC(=O)c2ccc3c(c2)C2OC3c3ccc(Cn4cccn4)cc32)c(F)cc2c1CNC2 (racemic) [Example 160]
output: 120

input: What is its IC50 for Human plasma kallikrein (Homo sapiens (Human), UniProt P03952)? Entry: Cc1cc(N)nc(C)c1CNC(=O)c1ccc2c(c1)[C@@H]1O[C@H]2c2ccc(-c3ccc(F)c(F)c3F)cc21 (single isomer, unassigned) [Example 138]
output: 24

input: Lab note: need IC50 for N=C(N)c1ccc(CNC(=O)c2ccc3c(c2)C2OC3c3ccc(-c4ccc(F)cc4F)cc32)cc1F (racemic) [Example 198] on Human plasma kallikrein (Homo sapiens (Human), UniProt P03952), anyone have it?
output: 20.9

input: Item Cc1cc(N)nc(C)c1CNC(=O)c1ccc2c(c1)[C@@H]1O[C@H]2c2ccc(-n3c(=O)ccn3C)cc21 (single isomer, unassigned) [Example 186] with Human plasma kallikrein (Homo sapiens (Human), UniProt P03952) - IC50?
output: 1820

input: Notebook: pull reported IC50 for Human plasma kallikrein (Homo sapiens (Human), UniProt P03952), entry Cc1cc(N)nc(C)c1CNC(=O)c1ccc2c(c1)[C@@H]1O[C@H]2c2ccc(-c3ccc(Cl)c(F)c3F)cc21 (single isomer, unassigned) [Example 145]
output: 17.4

input: Short answer please: IC50, Human plasma kallikrein (Homo sapiens (Human), UniProt P03952), entry O=C(N[C@H]1CCNC1)c1ccc2c(c1)[C@@H]1O[C@H]2c2ccc(-c3ccc(F)cc3F)cc21 (single isomer, unassigned) [Example 325]
output: 42700
